System: ncRNAs (SEQ ID NO 28-89)
ASSAY_METHOD_TEXT: ncRNA arrays of melanocytes, keratinocytes, normal skin, melanoma cell lines and patient samples
Design: species or system human
CONDITION_PARAMETERS: melanoma patient 28 sample compared to normal skin
Overview of reported ncRNA array expression, patient 28 across a group of substances:
READOUT_NAME: ncRNA array expression, patient 28

>>> measurement("SEQ ID NO 45 (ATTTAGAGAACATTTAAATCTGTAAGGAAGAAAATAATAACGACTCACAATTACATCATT; listed as DNA, chemistry not given here; listed as Homo sapiens)")
"−2.069"
>>> measurement("SEQ ID NO 85 (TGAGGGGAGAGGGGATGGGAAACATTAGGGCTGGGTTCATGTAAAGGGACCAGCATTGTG; listed as DNA, chemistry not given here; listed as Homo sapiens)")
"−3.261"
>>> measurement("SEQ ID NO 64 (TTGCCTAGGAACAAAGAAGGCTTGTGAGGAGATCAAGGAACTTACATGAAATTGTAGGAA; listed as DNA, chemistry not given here; listed as Homo sapiens)")
2.932
>>> measurement("SEQ ID NO 71 (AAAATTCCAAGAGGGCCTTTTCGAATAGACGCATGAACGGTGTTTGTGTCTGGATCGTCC; listed as DNA, chemistry not given here; listed as Homo sapiens)")
0.926
>>> measurement("SEQ ID NO 73 (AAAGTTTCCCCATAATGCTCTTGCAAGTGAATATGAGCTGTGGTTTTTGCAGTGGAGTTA; listed as DNA, chemistry not given here; listed as Homo sapiens)")
2.166

---

Tested on: ncRNAs (SEQ ID NO 28-89)
ASSAY_METHOD_TEXT: ncRNA arrays of melanocytes, keratinocytes, normal skin, melanoma cell lines and patient samples
Set-up: species or system human
CONDITION_PARAMETERS: melanoma patient 3 sample compared to normal skin
READOUT_NAME: ncRNA array expression, patient 3

>>> measurement("SEQ ID NO 86 (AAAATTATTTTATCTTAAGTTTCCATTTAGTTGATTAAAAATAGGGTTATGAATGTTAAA; listed as DNA, chemistry not given here; listed as Homo sapiens)")
1.628
>>> measurement("SEQ ID NO 34 (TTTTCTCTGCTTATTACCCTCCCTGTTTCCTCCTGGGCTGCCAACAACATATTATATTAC; listed as DNA, chemistry not given here; listed as Homo sapiens)")
2.833
>>> measurement("SEQ ID NO 81 (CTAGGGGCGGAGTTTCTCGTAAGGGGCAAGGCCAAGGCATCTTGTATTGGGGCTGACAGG; listed as DNA, chemistry not given here; listed as Homo sapiens)")
"−2.664"
>>> measurement("SEQ ID NO 69 (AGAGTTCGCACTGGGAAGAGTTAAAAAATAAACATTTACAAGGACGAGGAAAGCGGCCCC; listed as DNA, chemistry not given here; listed as Homo sapiens)")
"−1.8068"
>>> measurement("SEQ ID NO 78 (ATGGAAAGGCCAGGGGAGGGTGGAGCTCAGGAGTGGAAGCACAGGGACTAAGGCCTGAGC; listed as DNA, chemistry not given here; listed as Homo sapiens)")
"−3.634"

---

Tested on: ncRNAs (SEQ ID NO 28-89)
ASSAY_METHOD_TEXT: ncRNA arrays of melanocytes, keratinocytes, normal skin, melanoma cell lines and patient samples
Design: species or system human
CONDITION_PARAMETERS: melanoma patient 29 sample compared to normal skin
READOUT_NAME: ncRNA array expression, patient 29

>>> measurement("SEQ ID NO 39 (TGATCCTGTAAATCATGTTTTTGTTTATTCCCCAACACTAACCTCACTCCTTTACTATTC; listed as DNA, chemistry not given here; listed as Homo sapiens)")
"−1.374"
>>> measurement("SEQ ID NO 50 (GTTATTATAACCAATGCAGACTTTAAAATCCCACCTGGACATCGGGTGAGAGGAGGAGGG; listed as DNA, chemistry not given here; listed as Homo sapiens)")
"−2.317"
>>> measurement("SEQ ID NO 57 (TTGTTGTTTTGGGAGATACCCTGTTTAGCCTGAAAGGATTGAGATACTGTAATTGCTATG; listed as DNA, chemistry not given here; listed as Homo sapiens)")
0.4459
>>> measurement("SEQ ID NO 58 (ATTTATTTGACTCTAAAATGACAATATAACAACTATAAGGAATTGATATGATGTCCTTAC; listed as DNA, chemistry not given here; listed as Homo sapiens)")
"−1.543"
>>> measurement("SEQ ID NO 84 (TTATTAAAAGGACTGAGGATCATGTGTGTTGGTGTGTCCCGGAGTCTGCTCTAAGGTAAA; listed as DNA, chemistry not given here; listed as Homo sapiens)")
1.558
>>> measurement("SEQ ID NO 80 (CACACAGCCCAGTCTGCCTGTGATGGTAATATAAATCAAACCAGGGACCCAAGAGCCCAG; listed as DNA, chemistry not given here; listed as Homo sapiens)")
"−1.489"
>>> measurement("SEQ ID NO 34 (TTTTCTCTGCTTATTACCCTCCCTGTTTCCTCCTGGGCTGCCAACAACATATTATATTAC; listed as DNA, chemistry not given here; listed as Homo sapiens)")
2.129
>>> measurement("SEQ ID NO 40 (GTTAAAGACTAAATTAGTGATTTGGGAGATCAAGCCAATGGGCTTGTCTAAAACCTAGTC; listed as DNA, chemistry not given here; listed as Homo sapiens)")
1.245
>>> measurement("SEQ ID NO 38 (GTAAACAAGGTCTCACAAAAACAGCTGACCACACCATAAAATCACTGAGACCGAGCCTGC; listed as DNA, chemistry not given here; listed as Homo sapiens)")
"−1.249"
>>> measurement("SEQ ID NO 76 (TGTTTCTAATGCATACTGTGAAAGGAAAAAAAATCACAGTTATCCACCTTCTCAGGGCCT; listed as DNA, chemistry not given here; listed as Homo sapiens)")
"−1.765"

---

System: ncRNAs (SEQ ID NO 28-89)
ASSAY_METHOD_TEXT: ncRNA arrays of melanocytes, keratinocytes, normal skin, melanoma cell lines and patient samples
Design: species or system human
CONDITION_PARAMETERS: melanoma patient 21 sample compared to normal skin
Overview of reported ncRNA array expression, patient 21 across a group of substances:
READOUT_NAME: ncRNA array expression, patient 21

>>> measurement("SEQ ID NO 70 (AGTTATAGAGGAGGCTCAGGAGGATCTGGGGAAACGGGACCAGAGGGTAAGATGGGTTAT; listed as DNA, chemistry not given here; listed as Homo sapiens)")
"−1.1"
>>> measurement("SEQ ID NO 52 (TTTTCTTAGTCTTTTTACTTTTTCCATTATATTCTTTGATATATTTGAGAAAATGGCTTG; listed as DNA, chemistry not given here; listed as Homo sapiens)")
0.7286
>>> measurement("SEQ ID NO 73 (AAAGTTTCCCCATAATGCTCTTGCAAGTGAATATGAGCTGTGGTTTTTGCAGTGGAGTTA; listed as DNA, chemistry not given here; listed as Homo sapiens)")
2.332

---

System: ncRNAs (SEQ ID NO 28-89)
ASSAY_METHOD_TEXT: ncRNA arrays of melanocytes, keratinocytes, normal skin, melanoma cell lines and patient samples
Set-up: species or system human
CONDITION_PARAMETERS: melanoma patient 3 sample compared to normal skin
Overview of reported ncRNA array expression, patient 3 across a group of substances:
READOUT_NAME: ncRNA array expression, patient 3

>>> measurement("SEQ ID NO 49 (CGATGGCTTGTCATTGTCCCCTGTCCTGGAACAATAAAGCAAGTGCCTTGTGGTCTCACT; listed as DNA, chemistry not given here; listed as Homo sapiens)")
"−1.901"
>>> measurement("SEQ ID NO 72 (AATTACATATATTTAGCAGGATTTTTATTTGCCGTGATATATAGGATAATTTAGTCTTTG; listed as DNA, chemistry not given here; listed as Homo sapiens)")
2.382
>>> measurement("SEQ ID NO 85 (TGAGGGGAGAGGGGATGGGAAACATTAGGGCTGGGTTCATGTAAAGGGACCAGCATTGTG; listed as DNA, chemistry not given here; listed as Homo sapiens)")
"−2.236"

---

Test system: ncRNAs (SEQ ID NO 28-89)
ASSAY_METHOD_TEXT: ncRNA arrays of melanocytes, keratinocytes, normal skin, melanoma cell lines and patient samples
Set-up: species or system human
CONDITION_PARAMETERS: melanoma patient 28 sample compared to normal skin
READOUT_NAME: ncRNA array expression, patient 28

>>> measurement("SEQ ID NO 62 (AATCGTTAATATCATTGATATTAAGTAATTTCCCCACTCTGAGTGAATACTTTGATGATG; listed as DNA, chemistry not given here; listed as Homo sapiens)")
1.418
>>> measurement("SEQ ID NO 40 (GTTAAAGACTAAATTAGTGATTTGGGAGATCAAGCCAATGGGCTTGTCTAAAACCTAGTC; listed as DNA, chemistry not given here; listed as Homo sapiens)")
1.364
>>> measurement("SEQ ID NO 74 (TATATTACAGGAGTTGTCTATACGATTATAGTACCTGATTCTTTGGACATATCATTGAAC; listed as DNA, chemistry not given here; listed as Homo sapiens)")
2.421
>>> measurement("SEQ ID NO 86 (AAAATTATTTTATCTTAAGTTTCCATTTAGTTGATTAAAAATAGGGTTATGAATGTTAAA; listed as DNA, chemistry not given here; listed as Homo sapiens)")
"−0.07222"
>>> measurement("SEQ ID NO 76 (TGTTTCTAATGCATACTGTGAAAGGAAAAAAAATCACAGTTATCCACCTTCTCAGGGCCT; listed as DNA, chemistry not given here; listed as Homo sapiens)")
"−1.598"
